Molecular target: human α7 nicotinic acetylcholine receptor (HEK cell line stably expressing human RIC-3 and human α7) (Homo sapiens, UniProt P36544)
Construct: host or cells: HEK cell line (PrecisION hnAChR α7/RIC-3)
Sequence (P36544 23-502): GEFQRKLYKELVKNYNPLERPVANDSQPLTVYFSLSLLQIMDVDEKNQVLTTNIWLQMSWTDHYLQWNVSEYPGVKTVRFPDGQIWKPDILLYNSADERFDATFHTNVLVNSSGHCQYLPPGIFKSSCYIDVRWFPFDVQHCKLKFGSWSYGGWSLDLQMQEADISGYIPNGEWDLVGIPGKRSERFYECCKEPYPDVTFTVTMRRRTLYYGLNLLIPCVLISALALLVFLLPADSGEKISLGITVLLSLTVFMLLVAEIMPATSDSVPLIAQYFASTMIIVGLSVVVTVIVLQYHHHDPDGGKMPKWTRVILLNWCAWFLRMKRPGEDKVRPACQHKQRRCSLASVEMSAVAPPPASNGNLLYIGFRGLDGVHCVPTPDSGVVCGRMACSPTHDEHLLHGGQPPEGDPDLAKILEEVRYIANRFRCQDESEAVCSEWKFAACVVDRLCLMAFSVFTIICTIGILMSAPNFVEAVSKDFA
Assay: Automated patch-clamp electrophysiology functional assay (Assay A), IonFlux HT, whole-cell population patch
Type: cell-based
Details: HEK cells expressing human α7/RIC-3; test compound with or without 40 μM acetylcholine; holding potential −60 mV; room temperature; read-out: α7 nAChR Potency
pEC50: −log10 of the molar value.

{"Compound": "NS(=O)(=O)N1CCC2(CC1)C[C@H]2c1noc(-c2ccccc2-n2cccn2)n1", "pEC50": "5.30 to 6.30"}
{"Compound": "Cc1onc(C2CC2)c1-c1cnc([C@@H]2CC23CCN(S(N)(=O)=O)CC3)o1", "pEC50": "6.30 to 7.00"}
{"Compound": "NS(=O)(=O)N1CCC2(CC1)[C@H](c1cc(-c3ccnc(OC(F)F)c3)no1)C2(F)F", "pEC50": "> 7.00"}
{"Compound": "NS(=O)(=O)N1CCC2(CC2c2nc(-c3conc3C3CC3)no2)C(F)C1 (single isomer, unassigned) [Example I8]", "pEC50": "4.30 to 5.30"}
{"Compound": "CS(=O)(=O)N1CCC2(CC1)C(c1nc(-c3ccc(F)cc3C(F)(F)F)no1)C2(F)F (stereo not shown)", "pEC50": "5.30 to 6.30"}
{"Compound": "Cn1nc2c(c1-c1nc([C@@H]3C(F)(F)C34CCN(S(N)(=O)=O)CC4)no1)CCC2", "pEC50": "> 7.00"}
{"Compound": "Cc1cnn(C2CC2)c1-c1noc(C2C(F)(F)C23CCN(S(N)(=O)=O)CC3)n1 (stereo not shown)", "pEC50": "> 7.00"}

---

Biological target: human α7 nicotinic acetylcholine receptor (HEK cell line stably expressing human RIC-3 and human α7) (Homo sapiens, UniProt P36544)
Construct: host or cells: HEK cell line (PrecisION hnAChR α7/RIC-3)
Assay: Automated patch-clamp electrophysiology functional assay (Assay A), IonFlux HT, whole-cell population patch
Assay type: cell-based
Conditions: HEK cells expressing human α7/RIC-3; test compound with or without 40 μM acetylcholine; holding potential −60 mV; room temperature; read-out: α7 nAChR Potency
Measurement label: EC50

{"Compound": "NS(=O)(=O)N1CCC2(CC1)[C@H](c1noc(-c3cc(C(F)(F)F)n(C4CC4)n3)n1)C2(F)F", "Experimental result": "500 to 5000 nM"}
{"Compound": "NS(=O)(=O)N1CCC2(CC1)C[C@H]2c1noc(-c2cncc(OCC(F)(F)F)c2)n1", "Experimental result": "500 to 5000 nM"}
{"Compound": "COc1ccc(Cl)cc1-c1noc(C2CC23CCN(C(=O)NC(C)(C)C)CC3)n1 (racemic)", "Experimental result": "5000 to 50000 nM"}
{"Compound": "Cc1cn(C2CC2)c2ccc(-c3nc([C@@H]4CC45CCN(S(N)(=O)=O)CC5)no3)cc12 [Example E1]", "Experimental result": "100 to 500 nM"}
{"Compound": "CC1CN(S(N)(=O)=O)CCC12CC2c1nc(-c2ccc(F)cc2C(F)(F)F)no1 (stereo not shown)", "Experimental result": "100 to 500 nM"}
{"Compound": "Cc1noc(C)c1-c1noc(C2C(F)(F)C23CCN(S(N)(=O)=O)CC3)n1 (racemic)", "Experimental result": "100 to 500 nM"}
{"Compound": "COc1ccc(Cl)cc1-c1noc(C2CC23CCN(S(=O)(=O)c2ccsc2)CC3)n1 (racemic)", "Experimental result": "500 to 5000 nM"}

Provenance of the data: patent US11332463B2
